Origin of the recorded values: patent US20250277029A1

TARGET_DESC: T1, Empty ND
T1 construct: It carries no receptor; the scaffold is its only protein; also called empty nanodisc
TEST_PROTOCOL: flow cytometry, yeast-displayed Fab, 50 nM Empty ND
Assignment: determine reported relative binding fold change compared to LIBC523797-1(Fab) for the given binders.

Problem: Would you mind telling me what relative binding fold change compared to LIBC523797-1(Fab) value was observed for LIBC674200-1 (Fab on yeast) (Fab, V domains shown, Original clone of the Fab-yeast libraries, without the LC G76D reversion) VH: QVQLQESGPGLVKPSQTLSLTCTVSGGSIRRGGDYWSWIRQHPGKGLEWIGHVYYTGQTAYNPNFRNRVRISVNTYKNQFSLKLSSVTAADTAVYYCARGYDVSGYSYYYYGMDVWGQGTTVTVSS VL: DIVMTQSPLSLPVTPGEPASISCRSSQSLLHRSGYNYLDWYLQKPGQSPQLLIYLGSNRASGVPGRFSGSGSGTDFTLKISRVEAEDVGVYYCMQSLQTPRTFGQGTKVEIKR ?
Result: 0.74 fold

Problem: Consider the binder shown here: LIBC673952-1 (Fab on yeast) (Fab, V domains shown, Clone of the Fab-yeast libraries) VH: QVQLQESGPGLVKPSQTLSLTCTVSGGSIRRGGDYWSWIRQHPGKGLEWIGHVYYTGQTTYNPSFRGRVTISVNTYKNQFSLKLSSVTAADTAVYYCARDYDILTGYSYYYYGLDVWGQGTTVTVSS VL: DIVMTQSPLSLPVTPGEPASISCRSSQSLLHRSGYNYLDWYLQKPGQSPQLLIYQGSNRASGVPDRFSGSGSGTDFTLKISRVEAEDVGVYYCRQARALPRTFGQGTKVEIKR What is its recorded relative binding fold change compared to LIBC523797-1(Fab)?
Result: 0.62 fold

Problem: // lookup relative binding fold change compared to LIBC523797-1(Fab) for LIBC674090-1 (Fab on yeast) (Fab, V domains shown, Clone of the Fab-yeast libraries) VH: QVQLQESGPGLVKPSQTLSLTCTVSGGSIRRGGDYWSWIRQHPGKGLEWIGHIYYAGSTAYNPNFRGRVRISVNTYKNQFSLKLSSVTAADTAVYYCARGYDTSGYSYYYYGLDVWGQGTTVTVSS VL: DIVMTQSPLSLPVTPGEPASISCRSSQSLLHRSGYNYLDWYLQKPGQSPQLLIYQGSNRASGVPDRFSGSGSGTDFTLKISRVEAEDVGVYYCMQSLQTPRTFGQGTKVEIKR
Result: 0.99 fold

Problem: Which relative binding fold change compared to LIBC523797-1(Fab) is listed for LIBC674229-1 (Fab on yeast) (Fab, V domains shown, Clone of the Fab-yeast libraries) VH: QVQLQESGPGLVKPSQTLSLTCTVSGGSIRRGGDYWSWIRQHPGKGLEWIGHIYQTGQTKYNPSFKGRVRISVNTYKNQFSLKLSSVTAADTAVYYCARGYDVSGYSYYYYGMDVWGQGTTVTVSS VL: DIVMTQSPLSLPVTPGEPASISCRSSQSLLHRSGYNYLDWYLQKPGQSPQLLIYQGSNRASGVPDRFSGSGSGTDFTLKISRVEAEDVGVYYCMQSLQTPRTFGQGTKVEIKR ?
Result: 0.75 fold
